The reader will find Kd measurements below, all made with human STAT6 (Homo sapiens (Human), UniProt P42226).
Sequence (P42226 122-658): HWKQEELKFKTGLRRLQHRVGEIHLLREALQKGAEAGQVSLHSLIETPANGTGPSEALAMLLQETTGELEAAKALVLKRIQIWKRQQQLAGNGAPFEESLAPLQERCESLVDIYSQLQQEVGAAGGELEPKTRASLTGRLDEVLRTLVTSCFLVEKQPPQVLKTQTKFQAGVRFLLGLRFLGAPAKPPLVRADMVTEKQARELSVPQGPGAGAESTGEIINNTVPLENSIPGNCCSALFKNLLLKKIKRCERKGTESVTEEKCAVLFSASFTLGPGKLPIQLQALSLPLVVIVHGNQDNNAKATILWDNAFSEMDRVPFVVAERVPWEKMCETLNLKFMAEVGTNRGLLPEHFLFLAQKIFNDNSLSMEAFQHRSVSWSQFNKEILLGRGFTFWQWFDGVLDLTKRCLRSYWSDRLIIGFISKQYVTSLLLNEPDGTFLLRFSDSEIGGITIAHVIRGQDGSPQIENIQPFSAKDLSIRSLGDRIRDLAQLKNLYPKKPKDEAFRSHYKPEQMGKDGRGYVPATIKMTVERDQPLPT

Some compounds with known Kd results, for comparison:
compound: CNc1ccc(-c2ccnc3c2cc(CN2CC[C@H](c4ccc(C(=O)N(C)C)cc4)[C@H](F)C2)n3C)cn1 (stereo in doubt)
Kd: 0.0206 µM

compound: CNc1ccc(-c2ccnc3c2cc(CN2CC[C@@H](c4ccc(C(=O)N(C)C)cc4)[C@H](F)C2)n3C)cn1 (single isomer, unassigned)
Kd: 0.0353 µM

compound: C[C@@H]1C[C@H](c2ccc(C(=O)N(C)C)cc2)CCN1Cc1cc2c(-c3ccc(N)cn3)ccnc2n1C (single isomer, unassigned)
Kd: 0.0181 µM

compound: CN(C)C(=O)c1ccc(C2CCN(Cc3cc4c(-c5cnc(N)nc5C#N)ccnc4n3C)CC2)cc1
Kd: 0.188 µM

compound: CN(C)C(=O)c1ccc(C2CCN(Cc3cc4c(-c5cnc(N)c(OC(F)(F)F)c5)ccnc4n3C)CC2)cc1
Kd: 8.23 µM

compound: CNc1ccc(-c2ccnc3c2cc(CN2CCC(c4ccc(C(=O)N(C)C)cc4)CC2)n3S(C)(=O)=O)cn1
Kd: 0.0295 µM

compound: CN(C)C(=O)c1ccc(C2CCN(Cc3cc4c(-c5ccc(N)c(C#N)n5)ccnc4n3C)CC2)cc1
Kd: 0.0839 µM

compound: Cc1cc(C(=O)N(C)C)ccc1C1CCN([C@H](C)c2cc3c(-c4ccc(N)cn4)ccnc3n2C)CC1
Kd: 0.0314 µM

The compound identified as `CNC(=O)c1ccc(-c2ccnc3c2cc(CN2CCN(c4ccc(C(=O)N(C)C)cc4)CC2)n3C)cc1` registered its Kd at 37.2 µM

// recorded Kd for `CN(C)C(=O)c1ccc(C2CCN(Cc3cc4c(-c5ccc(N)nc5CO)ccnc4n3C)CC2)cc1` : 0.0608 µM

For this compound ( `CNc1ccc(-c2ccnc3c2cc(CN2CCC(c4ccc(C(=O)N(C)C)cc4)CC2)n3C)nc1` ), measured Kd is 0.0535 µM

Noted for `C[C@H](c1cc2c(-c3ccc(N)nc3C#N)ccnc2n1C)N1CCC(c2ccc(C(=O)N(C)C)cc2)CC1` : its Kd reads 0.0185 µM

Kd reading for `C[C@@H](c1cc2c(-c3ccc(N)cn3)ccnc2n1C)N1CC=C(c2ccc(C(=O)N(C)C)cc2)CC1` : 2.36 µM

Reported Kd ( `CN(C)C(=O)c1ccc(C2CCN(Cc3cc4c(-c5ccc(NCCO)nc5)ccnc4n3C)CC2)cc1` ) = 0.0165 µM

----------
For UniProtKB P42226, measured Kd is reported for the entries below.
Field: numeric (µM). Do not append units.

Simply: CN(C)C(=O)c1ccc(C2CCN(Cc3cc4c(-c5cnc(N)c(CO)c5)ccnc4n3C)CC2)cc1 [Example 1k34] , UniProtKB P42226, Kd = 0.245

The compound Cc1nc(N)cnc1-c1ccnc2c1cc(CN1CCC(c3ccc(C(=O)N(C)C)cc3)CC1)n2C [Example 1k39] on UniProtKB P42226: Kd was 2.28

Item CNc1ccc(-c2ccnc3c2cc(CN2CC[C@H](c4ccc(C(=O)N(C)C)cc4)[C@@H](F)C2)n3C)nc1 (stereo in doubt) [Example 1o18] was tested on UniProtKB P42226; the reported Kd is 0.139
